# test_system: T1, hu-MCSP(D3 domain)-avi-his (human, UniProt Q6UVK1 1582-2224)
# T1 construct: Recombinant D3 domain with avi and his tags; also called human MCSP(D3 domain)-avi-his; Human MCSP D3
# T1 sequence: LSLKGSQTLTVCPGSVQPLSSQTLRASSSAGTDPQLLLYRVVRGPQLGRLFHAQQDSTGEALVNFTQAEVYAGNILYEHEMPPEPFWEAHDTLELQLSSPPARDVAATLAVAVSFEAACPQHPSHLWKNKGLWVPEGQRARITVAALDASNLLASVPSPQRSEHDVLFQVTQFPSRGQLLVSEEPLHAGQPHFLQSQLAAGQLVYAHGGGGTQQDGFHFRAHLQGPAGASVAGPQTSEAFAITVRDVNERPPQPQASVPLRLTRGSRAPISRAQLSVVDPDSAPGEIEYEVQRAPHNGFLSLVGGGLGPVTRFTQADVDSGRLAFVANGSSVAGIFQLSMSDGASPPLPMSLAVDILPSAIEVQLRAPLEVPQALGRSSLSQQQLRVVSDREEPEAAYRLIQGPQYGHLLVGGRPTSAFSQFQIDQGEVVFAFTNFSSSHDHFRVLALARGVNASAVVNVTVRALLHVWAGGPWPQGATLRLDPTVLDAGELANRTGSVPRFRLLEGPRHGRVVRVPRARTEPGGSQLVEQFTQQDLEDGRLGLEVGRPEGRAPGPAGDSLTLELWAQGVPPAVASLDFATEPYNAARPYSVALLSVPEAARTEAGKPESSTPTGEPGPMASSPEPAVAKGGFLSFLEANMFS
# assay_notes: SPR ProteOn XPR36, 25 C; IgG captured via anti-human F(ab')2, MCSP D3 as analyte
Measured pKd of individual entries
Worth noting: pKd values are minus log10 of concentrations stated in mol/L.

{"columns": ["binder", "pKd"],
 "data": [
  ["M4-3/ML2(G3) IgG (antibody, V domains shown, Human IgG1) VH: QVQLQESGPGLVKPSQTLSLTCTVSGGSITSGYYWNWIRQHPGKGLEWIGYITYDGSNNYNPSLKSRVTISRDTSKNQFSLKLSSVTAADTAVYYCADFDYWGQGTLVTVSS VL: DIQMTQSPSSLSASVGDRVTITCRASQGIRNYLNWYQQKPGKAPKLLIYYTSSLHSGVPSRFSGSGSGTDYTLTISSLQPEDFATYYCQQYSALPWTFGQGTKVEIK", 9.52]
]}

Would you kindly share the measured pKd for M4-3(A7)/ML2(E10) IgG (antibody, V domains shown, Human IgG1) VH: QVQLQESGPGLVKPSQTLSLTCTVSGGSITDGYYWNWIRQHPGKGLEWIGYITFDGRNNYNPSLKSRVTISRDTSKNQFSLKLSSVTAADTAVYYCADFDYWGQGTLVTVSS VL: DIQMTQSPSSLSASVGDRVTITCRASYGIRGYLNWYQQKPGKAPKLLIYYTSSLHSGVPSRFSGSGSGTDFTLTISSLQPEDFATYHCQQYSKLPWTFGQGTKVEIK ?
9.52
